Where do the numbers come from? From patent US20250195487A1.

experiment: Hygroscopic behavior test by dynamic vapor sorption (DVS); assay type: physicochemical; conditions: relative humidity 30.0 %, 25° C., DVS
Where a name gives a salt, the structure may show the parent alone.
assay_endpoint: hygroscopic weight gain (%)
Lab book: enter the figure in %, no units written.

compound="Cc1nc(NC(=O)N2CCC(C)(C)C2=O)ccc1Oc1ccnc(-c2cnn(C)c2)c1 [Tartrate crystalline form I]" unit_string=% test_result=2.42
compound="Cc1nc(NC(=O)N2CCC(C)(C)C2=O)ccc1Oc1ccnc(-c2cnn(C)c2)c1 [Hydrochloride crystalline form I]" unit_string=% test_result=0.34
compound="Cc1nc(NC(=O)N2CCC(C)(C)C2=O)ccc1Oc1ccnc(-c2cnn(C)c2)c1 [Mesylate crystalline form II]" unit_string=% test_result=0.20

Input line: For the compound Cc1nc(NC(=O)N2CCC(C)(C)C2=O)ccc1Oc1ccnc(-c2cnn(C)c2)c1 [Phosphate crystalline form I] , give its measured hygroscopic weight gain value.
Output line: 2.32

====

experiment: Hygroscopic behavior test by dynamic vapor sorption (DVS); type: physicochemical; details: relative humidity 10.0 %, 25° C., DVS
Where a name gives a salt, the structure may show the parent alone.
hygroscopic weight gain overview
Lab book: enter the figure in %, no units written.

compound="Cc1nc(NC(=O)N2CCC(C)(C)C2=O)ccc1Oc1ccnc(-c2cnn(C)c2)c1 [Mesylate crystalline form II]" test_result=0.11
compound="Cc1nc(NC(=O)N2CCC(C)(C)C2=O)ccc1Oc1ccnc(-c2cnn(C)c2)c1 [Hydrochloride crystalline form I]" test_result=0.13
compound="Cc1nc(NC(=O)N2CCC(C)(C)C2=O)ccc1Oc1ccnc(-c2cnn(C)c2)c1 [Tartrate crystalline form I]" test_result=0.83

Now take the following compound into account.
Input line: For the compound Cc1nc(NC(=O)N2CCC(C)(C)C2=O)ccc1Oc1ccnc(-c2cnn(C)c2)c1 [Phosphate crystalline form I] , give its measured hygroscopic weight gain value.
Output line: 1.19

====

hygroscopic weight gain overview
experiment: Hygroscopic behavior test by dynamic vapor sorption (DVS); type: physicochemical; settings: relative humidity 70.0 %, 25° C., DVS
Structures can show the parent of a compound that is named as a salt.
Lab book: enter the figure in %, no units written.

compound="Cc1nc(NC(=O)N2CCC(C)(C)C2=O)ccc1Oc1ccnc(-c2cnn(C)c2)c1 [Mesylate crystalline form II]" test_result=8.93

Input line: For the compound Cc1nc(NC(=O)N2CCC(C)(C)C2=O)ccc1Oc1ccnc(-c2cnn(C)c2)c1 [Tartrate crystalline form I] , give its measured hygroscopic weight gain value.
Output line: 4.44

Input line: For the compound Cc1nc(NC(=O)N2CCC(C)(C)C2=O)ccc1Oc1ccnc(-c2cnn(C)c2)c1 [Hydrochloride crystalline form I] , give its measured hygroscopic weight gain value.
Output line: 0.81

Input line: For the compound Cc1nc(NC(=O)N2CCC(C)(C)C2=O)ccc1Oc1ccnc(-c2cnn(C)c2)c1 [Phosphate crystalline form I] , give its measured hygroscopic weight gain value.
Output line: 4.66

====

experiment: Hygroscopic behavior test by dynamic vapor sorption (DVS); type: physicochemical; settings: relative humidity 80.0 %, 25° C., DVS
Counter-ions that a name gives are not always drawn.
hygroscopic weight gain overview
Lab book: enter the figure in %, no units written.

Guide cases for hygroscopic weight gain, answers given:
compound="Cc1nc(NC(=O)N2CCC(C)(C)C2=O)ccc1Oc1ccnc(-c2cnn(C)c2)c1 [Tartrate crystalline form I]" test_result=5.17
compound="Cc1nc(NC(=O)N2CCC(C)(C)C2=O)ccc1Oc1ccnc(-c2cnn(C)c2)c1 [Mesylate crystalline form II]" test_result=12.44
compound="Cc1nc(NC(=O)N2CCC(C)(C)C2=O)ccc1Oc1ccnc(-c2cnn(C)c2)c1 [Hydrochloride crystalline form I]" test_result=1.37

Input line: For the compound Cc1nc(NC(=O)N2CCC(C)(C)C2=O)ccc1Oc1ccnc(-c2cnn(C)c2)c1 [Phosphate crystalline form I] , give its measured hygroscopic weight gain value.
Output line: 5.46

====

experiment: Hygroscopic behavior test by dynamic vapor sorption (DVS); type: physicochemical; conditions: relative humidity 50.0 %, 25° C., DVS
Where a name gives a salt, the structure may show the parent alone.
assay_endpoint: hygroscopic weight gain (%)
Lab book: enter the figure in %, no units written.

Guide cases for hygroscopic weight gain, answers given:
compound="Cc1nc(NC(=O)N2CCC(C)(C)C2=O)ccc1Oc1ccnc(-c2cnn(C)c2)c1 [Hydrochloride crystalline form I]" test_result=0.52
compound="Cc1nc(NC(=O)N2CCC(C)(C)C2=O)ccc1Oc1ccnc(-c2cnn(C)c2)c1 [Mesylate crystalline form II]" test_result=0.31
compound="Cc1nc(NC(=O)N2CCC(C)(C)C2=O)ccc1Oc1ccnc(-c2cnn(C)c2)c1 [Phosphate crystalline form I]" test_result=3.37

Now take the following compound into account.
Input line: For the compound Cc1nc(NC(=O)N2CCC(C)(C)C2=O)ccc1Oc1ccnc(-c2cnn(C)c2)c1 [Tartrate crystalline form I] , give its measured hygroscopic weight gain value.
Output line: 3.32

====

assay: Hygroscopic behavior test by dynamic vapor sorption (DVS); type: physicochemical; conditions: relative humidity 60.0 %, 25° C., DVS
Structures can show the parent of a compound that is named as a salt.
assay_endpoint: hygroscopic weight gain (%)
Lab book: enter the figure in %, no units written.

Guide cases for hygroscopic weight gain, answers given:
compound="Cc1nc(NC(=O)N2CCC(C)(C)C2=O)ccc1Oc1ccnc(-c2cnn(C)c2)c1 [Tartrate crystalline form I]" test_result=3.77
compound="Cc1nc(NC(=O)N2CCC(C)(C)C2=O)ccc1Oc1ccnc(-c2cnn(C)c2)c1 [Phosphate crystalline form I]" test_result=3.97
compound="Cc1nc(NC(=O)N2CCC(C)(C)C2=O)ccc1Oc1ccnc(-c2cnn(C)c2)c1 [Hydrochloride crystalline form I]" test_result=0.63

Now take the following compound into account.
Input line: For the compound Cc1nc(NC(=O)N2CCC(C)(C)C2=O)ccc1Oc1ccnc(-c2cnn(C)c2)c1 [Mesylate crystalline form II] , give its measured hygroscopic weight gain value.
Output line: 0.88

====

hygroscopic weight gain overview
assay: Hygroscopic behavior test by dynamic vapor sorption (DVS); type: physicochemical; conditions: relative humidity 0.0 %, 25° C., DVS
Where a name gives a salt, the structure may show the parent alone.
Lab book: enter the figure in %, no units written.

compound="Cc1nc(NC(=O)N2CCC(C)(C)C2=O)ccc1Oc1ccnc(-c2cnn(C)c2)c1 [Mesylate crystalline form II]" test_result=0.00
compound="Cc1nc(NC(=O)N2CCC(C)(C)C2=O)ccc1Oc1ccnc(-c2cnn(C)c2)c1 [Hydrochloride crystalline form I]" test_result=0.00
compound="Cc1nc(NC(=O)N2CCC(C)(C)C2=O)ccc1Oc1ccnc(-c2cnn(C)c2)c1 [Tartrate crystalline form I]" test_result=0.00

Input line: For the compound Cc1nc(NC(=O)N2CCC(C)(C)C2=O)ccc1Oc1ccnc(-c2cnn(C)c2)c1 [Phosphate crystalline form I] , give its measured hygroscopic weight gain value.
Output line: 0.02

====

assay: Hygroscopic behavior test by dynamic vapor sorption (DVS); assay type: physicochemical; conditions: relative humidity 90.0 %, 25° C., DVS
Counter-ions that a name gives are not always drawn.
assay_endpoint: hygroscopic weight gain (%)
Lab book: enter the figure in %, no units written.

Input line: For the molecule Cc1nc(NC(=O)N2CCC(C)(C)C2=O)ccc1Oc1ccnc(-c2cnn(C)c2)c1 [Tartrate crystalline form I] , give its measured hygroscopic weight gain value.
Output line: 10.61

Input line: For the molecule Cc1nc(NC(=O)N2CCC(C)(C)C2=O)ccc1Oc1ccnc(-c2cnn(C)c2)c1 [Phosphate crystalline form I] , give its measured hygroscopic weight gain value.
Output line: 6.383

Input line: For the molecule Cc1nc(NC(=O)N2CCC(C)(C)C2=O)ccc1Oc1ccnc(-c2cnn(C)c2)c1 [Hydrochloride crystalline form I] , give its measured hygroscopic weight gain value.
Output line: 19.40

Input line: For the molecule Cc1nc(NC(=O)N2CCC(C)(C)C2=O)ccc1Oc1ccnc(-c2cnn(C)c2)c1 [Mesylate crystalline form II] , give its measured hygroscopic weight gain value.
Output line: 23.15

====

assay: Solubility determination in deionized water; format: physicochemical; conditions: ultrasonic treatment, about 2 mg sample
Where a name gives a salt, the structure may show the parent alone.
assay_endpoint: Solubility S

Guide cases for Solubility S, answers given:
compound="Cc1nc(NC(=O)N2CCC(C)(C)C2=O)ccc1Oc1ccnc(-c2cnn(C)c2)c1 [Hydrochloride crystalline form I]" test_result="S > 20 mg/mL"
compound="Cc1nc(NC(=O)N2CCC(C)(C)C2=O)ccc1Oc1ccnc(-c2cnn(C)c2)c1 [Fumarate crystalline form I]" test_result="S > 20 mg/mL"
compound="Cc1nc(NC(=O)N2CCC(C)(C)C2=O)ccc1Oc1ccnc(-c2cnn(C)c2)c1 [Sulfate crystalline form I]" test_result="S > 20 mg/mL"
compound="Cc1nc(NC(=O)N2CCC(C)(C)C2=O)ccc1Oc1ccnc(-c2cnn(C)c2)c1 [Phosphate crystalline form I]" test_result="S > 20 mg/mL"
compound="Cc1nc(NC(=O)N2CCC(C)(C)C2=O)ccc1Oc1ccnc(-c2cnn(C)c2)c1 [Mesylate crystalline form II]" test_result="S > 20 mg/mL"
compound="Cc1nc(NC(=O)N2CCC(C)(C)C2=O)ccc1Oc1ccnc(-c2cnn(C)c2)c1 [Malate crystalline form I]" test_result="S > 20 mg/mL"

Input line: For the compound Cc1nc(NC(=O)N2CCC(C)(C)C2=O)ccc1Oc1ccnc(-c2cnn(C)c2)c1 [Tartrate crystalline form I] , give its measured Solubility S value.
Output line: S > 20 mg/mL

Input line: For the compound Cc1nc(NC(=O)N2CCC(C)(C)C2=O)ccc1Oc1ccnc(-c2cnn(C)c2)c1 [Citrate crystalline form I] , give its measured Solubility S value.
Output line: S > 20 mg/mL
